# protocol.text: RPL19A-GFP modulators, yeast TOR pathway, confirmation, cell-based, S. cerevisiae, flow cytometry, cherry picks, mother/daughter gates (AID 2270)
# experimental.context: S. cerevisiae RPL19A-GFP strain, 3 h, at 10 µM, hits give low values, 100 = same GFP as DMSO wells
Activity calls are given as the source filed them.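 How the source made its calls: active means GFP response below 50% of the DMSO control; inconclusive means fewer than 70 events counted for a yeast strain; inactive means the rest.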
reported.endpoint: GFP response vs DMSO

Field: example entries. Status: answers known.
1. Cc1cc(C)c(C(=O)COC(=O)c2ccc([N+](=O)[O-])o2)cc1C = 100% (inactive)
2. Cc1nc2c(-c3ccc(F)cc3)cnn2c(N)c1-c1ccccc1 = 99.6% (inactive)
3. O=c1c2ccccc2nc(-c2ccccc2)n1CCN1CCOCC1 = 101% (inactive)

# GFP response vs DMSO lookup, item Clc1cccc(Cn2ncc3ccccc32)c1
95% (inactive)

Query (compound): CCCc1ccc(C(=O)N2CCN(c3ccccc3OCC)CC2)cc1 ; field requested: GFP response vs DMSO
99.1% (inactive)

Fill in: GFP response vs DMSO of O=C1CC(Sc2nnc(-c3ccccc3O)o2)C(=O)N1c1ccccc1 (stereo unspecified) is ___
95.1% (inactive)
